- TARGET SYSTEM: T1, Unprocessed hMPV PreF trimer (human metapneumovirus, strain B2)
- T1 construct: also called Unprocessed hMPV WT PreF trimer; unprocessed hMPV PreF trimeric antigen
- ASSAY NAME: BLI, mAb on anti-human Fc sensor
ATTRIBUTE MEASURED: Octet binding response (nm)
Unit nm implied. Number only.

Enquiry: Note Octet binding response for the binder shown: M3A08 (antibody, V domains shown, IgG) VH: EVQLVESGGGLVKPGGSLRLSCAASGFSITSYGMHWVRQAPGKGLEWVSSISSSSSYISYRDSVKGRFTVSRDNAGNSLSLQMNSLRGEDTAVYHCARDAGLVPPWMDSWGQGTLVIVSS VL: QSVLTQPPSVSGAAGQRVTISCTGSSSNLGTGYDVHWYRQQPGTAPKLIMFGNTNRPSGVPGRFSGSRSGTSASLAITGLQADDEADYYCQSYDSSLGGLVFGGGTKLTVL
Return: 0.422

Enquiry: Note Octet binding response for the binder shown: M2C05 (antibody, V domains shown, IgG) VH: EVQLLESGGGLVQPGGSLRLSCAGSGFTFSNYAMSWVRQAPGKGLEWVSDINDRGETTHYADSVKGRFTISRDNSKKKLFLQMNDLRAEDTAIYYCTRAYVVLSVYAPKGFDYWGQGTLVSVSS VL: DIQMTQSPSILSASEGDRVTITCRASQSVSNWLAWYQQKSGRAPKLLIYKASSLETGVPSRFSGSGSGTEFTLTINNLQPDDFATYYCQHYNGYPYTFGQGTKLEIK
Return: 0.399

Enquiry: Note Octet binding response for the binder shown: M4F8 (antibody, V domains shown, IgG) VH: QVQLVQSGPEVKKPGASVKISCKASEYTFTNHYLHWVRQAPGQGLEWLGIINPTGGSTYYAGDFQGRVTLTRDASTTTVYMELSSVKSEDTAIYYCARDRGMRYFDYWGQGTLVTVSS VL: QSVLTQPPSVSGAPGQRVSISCTGISSNIGATYDVHWYQQLPGTAPKLLIYGNNNRPSGVPDRFSGSKSGTSASLAITGLQAEDEAVYYCQSYDSVLSGSVIFGGGTILTVL
Return: 0.271

Enquiry: Note Octet binding response for the binder shown: M2A11 (antibody, V domains shown, IgG) VH: QVQLQESGPGLVKPSETLSLTCTVSGGSITSHYWSWVRQPPGKGLEWIAYIYYSGSTDYNPSLKSRVTISLDTSKNQVSLRLNSVTTADTAVYFCARCMPLYHVMHVWGHGTTVTVSS VL: QSVLTQPPSVSGAPGQRVTISCTGSSSDIGAGSDVHWYQQLPGTAPKLLIYGNTNRPSGVPDRFSGSKSGTSASLAITGLQAEDEADYYCQSYDSGLSGYVFGGGTKLTVL
Return: 0.285

Enquiry: Note Octet binding response for the binder shown: M1A04 (antibody, V domains shown, IgG) VH: EVQLVESGGGLVRPGGSLRLSCAASGFNVRNYYMSWVRQAPGKGLEWISVIYGGGTTFYAGSVKGRFTISRDDSKSTLFLQMNSLRADDTAVYYCARDPGTVMSTENLQGMDVWGQGTTVTVSS VL: DIQMTQSPSSLSASVGDRVTITCRASQTIRSYLNWYQQKPGKAPNLLIYAATSLQSGVPSRFSGSGSGTDFTLTISSLQPEDSATYYCQQSFSTLYSFGQGTRLEIK
Return: 0.453

Hey, just so you know, these numbers are from patent US20240327502A1.
